This collection of values is drawn from ChEMBL document CHEMBL1156870.

molecular target: 5-hydroxytryptamine receptor 1B (Homo sapiens)
Please respond with reported pKi for every item in the list.
Numbers only, as −log10 of the molar value.

COC1(c2ccc(NC(=O)c3cc(=O)c4cc(F)cc(-c5c(C)nn(C)c5C)c4o3)cn2)CCOCC1    9.37

Switching to the query record.
Which pKi is listed for COC1(c2ccc(NC(=O)C3CCc4cc(F)cc(-c5c(C)nn(C)c5C)c4O3)cn2)CCOCC1 (configuration not stated) ?
9.02

* * *

molecular target: 5-hydroxytryptamine receptor 1B (Homo sapiens, UniProt P28222); assay: Antagonist activity at 5HT1B receptor expressed in CHO cells by [35S]GTPgammaS assay; format: functional, cell-based; set-up: concentration or dose not given beside the values
Sequence (P28222 whole entry): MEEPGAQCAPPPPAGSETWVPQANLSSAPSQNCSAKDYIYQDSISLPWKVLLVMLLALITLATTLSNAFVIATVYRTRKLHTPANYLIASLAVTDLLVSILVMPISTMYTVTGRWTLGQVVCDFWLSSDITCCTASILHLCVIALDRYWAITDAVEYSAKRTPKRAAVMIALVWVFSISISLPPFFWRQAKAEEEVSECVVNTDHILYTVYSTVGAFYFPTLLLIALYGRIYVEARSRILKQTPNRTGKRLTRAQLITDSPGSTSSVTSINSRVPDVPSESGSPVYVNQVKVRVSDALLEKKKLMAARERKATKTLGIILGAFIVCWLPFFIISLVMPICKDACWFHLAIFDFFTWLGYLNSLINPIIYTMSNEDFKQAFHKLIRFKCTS
observed.property: Activity

As a guide, the following entries are already answered.
COc1cc2c(c(N3CCN(C)CC3)c1)O[C@@H](C(=O)Nc1ccc(N3CCOCC3)cc1)CC2    120%
Cc1n[nH]c(C)c1-c1ccc(C)c2c(=O)cc(C(=O)Nc3ccc(N4CCOCC4)cc3)[nH]c12    33%
CCC(=O)N1CCN(c2ccc(NC(=O)c3cc(=O)c4cc(F)cc(N5CCN(C)CC5)c4o3)cc2)CC1    150%
COC1(c2ccc(NC(=O)c3cc(=O)c4cc(F)cc(-c5c(C)nn(C)c5C)c4o3)cn2)CCOCC1    90%

Param item = COC1(c2ccc(NC(=O)C3CCc4cc(F)cc(-c5c(C)nn(C)c5C)c4O3)cn2)CCOCC1 (stereo not given) ; retrieve measured Activity.
62%

* * *

test system: in vitro phospholipidosis assay (no protein target); assay: in vitro; details: human
observed.property: inhibition at 300 µM (%)
One number for each entry, in %.

Lab request: please report inhibition at 300 µM under test system in vitro phospholipidosis assay (no protein target) for Cc1n[nH]c(C)c1-c1ccc(C)c2c(O)cc(C(=O)Nc3ccc(N4CCOCC4)cc3)nc12
12
